target: 5-hydroxytryptamine receptor 1A (Rattus norvegicus, UniProt P19327)
Sequence (P19327 whole entry): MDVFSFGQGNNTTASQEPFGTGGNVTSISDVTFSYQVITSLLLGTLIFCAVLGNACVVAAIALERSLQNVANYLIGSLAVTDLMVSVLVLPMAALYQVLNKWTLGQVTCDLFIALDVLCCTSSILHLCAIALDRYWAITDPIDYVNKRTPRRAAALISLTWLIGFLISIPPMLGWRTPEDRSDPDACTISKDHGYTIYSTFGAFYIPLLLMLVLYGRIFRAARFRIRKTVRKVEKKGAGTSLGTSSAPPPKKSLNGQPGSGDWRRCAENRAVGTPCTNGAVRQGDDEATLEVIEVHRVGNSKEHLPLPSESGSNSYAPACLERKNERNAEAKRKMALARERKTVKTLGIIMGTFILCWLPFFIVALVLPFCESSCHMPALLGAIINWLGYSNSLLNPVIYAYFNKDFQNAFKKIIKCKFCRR
measurementNotes: Binding affinity towards 5-hydroxytryptamine 1A receptor in rat hypocampus membrane using [3H]8-OH-DPAT as radioligand
Assay type: cell membranes
Consider the following compounds and their measured Ki readings.
measurementKind: Ki (µM)

compound: COc1cccc(OC)c1OCCNCC1COc2ccccc2O1 (configuration not stated)
observedMeasurement: 0.00726
--
compound: COc1cccc(OC)c1OCCNC[C@@H]1Oc2ccccc2O[C@H]1c1ccc(C)cc1
observedMeasurement: 0.889

----------
target: Adrenergic receptor alpha-1 (Rattus norvegicus, UniProt P15823+P23944+P43140)
measurementNotes: pA2 values was evaluated against Alpha-1 adrenergic receptor in the isolated Rat Vas Deferens
Format: functional, tissue-based
Consider the following compounds and their measured pA2 readings.

compound: COc1cccc(OC)c1OCCNCC1Oc2ccccc2OC1c1ccc(C)cc1 (racemic)
target: Adrenergic receptor alpha-1 (Rattus norvegicus, UniProt P15823+P23944+P43140)
pA2: 8.67
--
compound: COc1cccc(OC)c1OCCNC[C@@H]1Oc2ccccc2O[C@H]1c1ccc(C)cc1
target: Adrenergic receptor alpha-1 (Rattus norvegicus, UniProt P15823+P23944+P43140)
pA2: 8.92
--
compound: COc1cccc(OC)c1OCCNCC1COc2ccccc2O1 (centres undefined)
target: Adrenergic receptor alpha-1 (Rattus norvegicus, UniProt P15823+P23944+P43140)
pA2: 9.13
--
compound: COc1cccc(OC)c1OCCNC[C@H]1Oc2ccccc2O[C@@H]1c1ccc(C)cc1
target: Adrenergic receptor alpha-1 (Rattus norvegicus, UniProt P15823+P23944+P43140)
pA2: 7.59
